A collection of molecules and their measured GTP binding activity (% of control)
molecular target: Ras-related C3 botulinum toxin substrate 1 (Homo sapiens) (UniProt P63000); assay: compounds altering fluorescent GTP loading on wildtype Rac1 – biochemical, GST-Rac1 beads, flow cytometry, multiplex, primary screen (AID 757); settings: at 10 µM, actives lie on both sides, 0 = cold GTP competed, 100 = untreated
Out of some 190,000 compounds screened, about 520 (0.27%) were called active. About 2% were inconclusive and are not listed. Only a selection was taken, and actives are over-represented in it overall.
measurement_type: GTP binding activity (% of control) (%)

# molecule, target_or_test_system, measurement_type, value_measured
rows = [
    ("Cc1noc(C)c1CCC(=O)O", "Ras-related C3 botulinum toxin substrate 1 (Homo sapiens) (UniProt P63000)", "GTP binding activity (% of control)", 97),
    ("O=c1cc(O)c(-c2cccc(C(F)(F)F)c2)c(Cl)[nH]1", "Ras-related C3 botulinum toxin substrate 1 (Homo sapiens) (UniProt P63000)", "GTP binding activity (% of control)", 97),
    ("CCc1ccc(Oc2nc([N+](=O)[O-])nn2C)cc1", "Ras-related C3 botulinum toxin substrate 1 (Homo sapiens) (UniProt P63000)", "GTP binding activity (% of control)", 98),
    ("Cc1cnc(C(=O)N2CCCC(C(=O)c3ccc(C(F)(F)F)cc3)C2)cn1 (stereo not drawn)", "Ras-related C3 botulinum toxin substrate 1 (Homo sapiens) (UniProt P63000)", "GTP binding activity (% of control)", 100),
    ("CCn1c(CSc2nc(C)cc(C)n2)nnc1SCC(N)=O", "Ras-related C3 botulinum toxin substrate 1 (Homo sapiens) (UniProt P63000)", "GTP binding activity (% of control)", 95),
    ("Cc1cc(C)cc(C(=O)NCC(=O)OCC(=O)N2CCCCC2)c1", "Ras-related C3 botulinum toxin substrate 1 (Homo sapiens) (UniProt P63000)", "GTP binding activity (% of control)", 99),
    ("Cc1ccc(NC(=O)NC2CCCCC2)cc1S(=O)(=O)N1CCOCC1", "Ras-related C3 botulinum toxin substrate 1 (Homo sapiens) (UniProt P63000)", "GTP binding activity (% of control)", 99),
    ("CS(=O)(=O)N(CC(=O)N1CCCC1)Cc1ccccc1", "Ras-related C3 botulinum toxin substrate 1 (Homo sapiens) (UniProt P63000)", "GTP binding activity (% of control)", 106),
    ("Cc1cc(C)cc(NC(=O)CSc2ccccc2)c1", "Ras-related C3 botulinum toxin substrate 1 (Homo sapiens) (UniProt P63000)", "GTP binding activity (% of control)", 95),
    ("COc1ccc(C)cc1-n1nnnc1SCc1nc2ccccc2c(=O)[nH]1", "Ras-related C3 botulinum toxin substrate 1 (Homo sapiens) (UniProt P63000)", "GTP binding activity (% of control)", 98),
    ("O=C(NCCCN1CCOCC1)c1ccccc1NS(=O)(=O)c1ccc(Br)cc1", "Ras-related C3 botulinum toxin substrate 1 (Homo sapiens) (UniProt P63000)", "GTP binding activity (% of control)", 100),
    ("CSCC(NS(=O)(=O)c1ccc(C)cc1)C(=O)O (stereo not drawn)", "Ras-related C3 botulinum toxin substrate 1 (Homo sapiens) (UniProt P63000)", "GTP binding activity (% of control)", 104),
    ("O=C(C1CCCN1S(=O)(=O)c1ccc(Br)cc1)N1CCOCC1 (stereo not drawn)", "Ras-related C3 botulinum toxin substrate 1 (Homo sapiens) (UniProt P63000)", "GTP binding activity (% of control)", 97),
    ("CCOC(=O)c1ccc(NC(=S)N2CCCC2)cc1", "Ras-related C3 botulinum toxin substrate 1 (Homo sapiens) (UniProt P63000)", "GTP binding activity (% of control)", 96),
    ("O=C(CCC(=O)NNc1nc2ccccc2c2nc(-c3ccccc3)nn12)NCCCN1CCCC1=O", "Ras-related C3 botulinum toxin substrate 1 (Homo sapiens) (UniProt P63000)", "GTP binding activity (% of control)", 96),
    ("COc1ccc(OC)c(NC(=O)CN(Cc2ccc(Cl)cc2)S(C)(=O)=O)c1", "Ras-related C3 botulinum toxin substrate 1 (Homo sapiens) (UniProt P63000)", "GTP binding activity (% of control)", 97),
    ("Cc1cccc(NC(=S)NC23CN4CN(CN(C4)C2)C3)c1", "Ras-related C3 botulinum toxin substrate 1 (Homo sapiens) (UniProt P63000)", "GTP binding activity (% of control)", 99),
    ("CC(=O)N1N=C(c2ccccc2)OC1c1cccnc1 (stereo not drawn)", "Ras-related C3 botulinum toxin substrate 1 (Homo sapiens) (UniProt P63000)", "GTP binding activity (% of control)", 98),
    ("CN(Cc1ccccn1)Cc1nc(-c2ccc(Cl)cc2)no1", "Ras-related C3 botulinum toxin substrate 1 (Homo sapiens) (UniProt P63000)", "GTP binding activity (% of control)", 101),
    ("CCc1ccccc1NC(=O)CN(c1ccc(OC)cc1OC)S(=O)(=O)c1ccccc1[N+](=O)[O-]", "Ras-related C3 botulinum toxin substrate 1 (Homo sapiens) (UniProt P63000)", "GTP binding activity (% of control)", 100),
    ("CCC1CO/C(=C(\\C(=C(Cl)Cl)N2CCOCC2)[N+](=O)[O-])N1 (stereo not drawn)", "Ras-related C3 botulinum toxin substrate 1 (Homo sapiens) (UniProt P63000)", "GTP binding activity (% of control)", 101),
    ("CCOc1cc(C2C(C(=O)OC(C)C)=C(C)NC3=C2C(=O)CCC3)cc([N+](=O)[O-])c1O (stereo not drawn)", "Ras-related C3 botulinum toxin substrate 1 (Homo sapiens) (UniProt P63000)", "GTP binding activity (% of control)", 98),
    ("O=C(CSc1ccccc1)Nc1ccc(NC(=O)c2ccco2)cc1", "Ras-related C3 botulinum toxin substrate 1 (Homo sapiens) (UniProt P63000)", "GTP binding activity (% of control)", 101),
]
